experiment: protein stability index of a GFP-peptide fusion (yeast GPS) (PSI 1-4); higher = more stable; sorted into four equal gates, so the index is relative within each strain; conditions: doa10∆
observation type: protein stability index

> print(dat)
                macromolecule.sequence  endpoint.value
 1            HNMKAYYKKFLIEPLPT [BRR2]            1.26
 2            LNHRNKNQHRAASWYGS [RMP1]            2.86
 3            DEVDAIGGRRFSEGTSA [RPT4]            2.72
 4           ARNLIEDEDDGESEKSS [RPC53]            3.06
 5   GRQFCNRLSRIHLYMLT [YLR018C/POM34]            1.68
 6           TVLVIDNSEYSRNGDFP [RPN10]            2.44
 7    SRFSPEKLAVSALEQAI [YGL100W/SEH1]            2.19
 8            ENNRLLFECRTCSYVEE [RPB9]            3.12
 9   FGQASGASTGNANTGFS [YGL172W/NUP49]            3.18
10            KDFVTMAIEIINDIRDD [YCG1]            1.85
11           NATHDEDEFIVQHDQIL [SWP82]            2.93
12            SFELKEEDISDLWNNFG [RRP6]            2.85
13           TLVNKSTGLKNASDALK [RPS1B]            2.87
14            PTRYVLIRNVGTNTYRL [POP1]            1.97
15    PSTTLFNFGGKSDTVTS [YOR098C/NUP1]            2.51
16            DIIVAIKIFELKLPADA [IRR1]            1.54
17            LTHRLGGDTCSSDGALC [POP1]            2.96
18   DPVSGAILVPMTVNDQP [YJR042W/NUP85]            1.95
19            IPPPMPKNQQYRAFGSI [MED7]            2.04
20          GVIIKVEESGEHVILGN [SNU114]            2.65
21           KRPRSRTLTAVHDKILE [RPS7A]            2.06
22           VPEMIGSVVGIYNGKAF [RPS15]            1.27
23            LTLRKAKAPSGLDQSRI [FAS1]            3.05
24          RKAYFTAPSSQRRVLLS [RPL26A]            2.44
25           QAQAQAQAQAQAQAQAQ [GAL11]            2.84
26            KYCEIMGDNSQLDFTEF [SNF2]            3.16
27  MFNPLHESYCLPMDTNL [YMR129W/POM152]            2.39
28            TLTKISMLFKTSQKMTS [MCD1]            1.92
29            EWRKSAIANTLLYLRLK [PRP8]            1.85
